- target_under_test: POU1 (OCT1 POU domain) (human, UniProt P14859 260-458)
- Sequence (P14859 260-458): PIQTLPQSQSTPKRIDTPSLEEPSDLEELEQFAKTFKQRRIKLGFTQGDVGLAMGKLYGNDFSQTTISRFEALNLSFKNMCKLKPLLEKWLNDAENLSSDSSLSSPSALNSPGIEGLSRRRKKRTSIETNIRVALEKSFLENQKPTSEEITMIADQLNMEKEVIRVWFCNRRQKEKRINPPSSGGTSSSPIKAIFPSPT
- method: EMSA-SELEX-seq; no BOB1; 20 mM Tris-HCl pH 7.6, 140 mM NaCl, 10% glycerol, 0.5 mM EDTA, 0.05% Triton X-100, 0.1 mg/mL BSA, 0.1 mg/mL poly(dI-dC), 5 mM DTT, room temperature, 20 min; high values mean tight binding
- condition_parameters: protein: recombinant; dsDNA, one strand shown
binding signal values by entry

Here are 4 sequences together with their reported answers.
seq_text	binding signal
AGGAAAAA	0.134 % of ANNNNAAN 8-mers
ATACCAAT	0.0465 % of ANNNNAAN 8-mers
ATCACAAC	0.0194 % of ANNNNAAN 8-mers
AGCCAAAA	0.0355 % of ANNNNAAN 8-mers

**Query** Specify reported binding signal for the sequence shown: ACCCAAAA
**Result** 0.0214 % of ANNNNAAN 8-mers

**Query** Annotate the sequence AGTAGAAC with its measured binding signal.
**Result** 0.0271 % of ANNNNAAN 8-mers

**Query** Let me know recorded binding signal for ATAGAAAG , thanks.
**Result** 0.0461 % of ANNNNAAN 8-mers

**Query** Check the records and state binding signal for ACGTCAAC
**Result** 0.013 % of ANNNNAAN 8-mers

**Query** Please look at this sequence and report its binding signal: ATGGGAAC
**Result** 0.0496 % of ANNNNAAN 8-mers

**Query** Please report binding signal for the following sequence: ATTTAAAG
**Result** 0.183 % of ANNNNAAN 8-mers

**Query** Note down binding signal recorded for AAACGAAT
**Result** 0.0767 % of ANNNNAAN 8-mers

**Query** Using known records, supply binding signal for AAATAAAC
**Result** 0.116 % of ANNNNAAN 8-mers

**Query** Respond only with binding signal recorded for ACGGCAAA
**Result** 0.0328 % of ANNNNAAN 8-mers

**Query** Tell me measured binding signal for ATACTAAC please.
**Result** 0.0347 % of ANNNNAAN 8-mers
